Value source: PubChem BioAssay (NCI)

System: MDA-MB-468 breast
Test: NCI tumour cell line growth inhibition, 48 h
MEASURE: TGI

Use these answered entries as a reference point.
INSERT INTO assay_data (molecule, result_value) VALUES
  ('COC1OCC(OS(=O)(=O)c2ccc(C)cc2)C(OC(=O)c2ccccc2)C1OC(=O)c1ccccc1 (stereo not drawn)', '> 100 µM'),
  ('CC(C)c1ccc2c(N=Nc3ccc(S(N)(=O)=O)cc3)c(O)[nH]c2c1', '> 25 µM');

We now examine a further molecule.
Missing value: TGI, MDA-MB-468 breast, entry `COc1cc(C(=O)NC2CCN(C)CC2)ccc1Nc1ncc2c(n1)N(C1CCCC1)CC(F)(F)C(=O)N2C` . Fill in?
< 0.0427 µM
